Where do these numbers come from? They come from patent US11883407B2.

Assay details: clinical
Condition description: human, plasma, oral, 10 mg
Observable: concentration at 24 h (µg/mL)
Numbers only here, please. The scale is µg/mL.

[in] Which concentration at 24 h reading was recorded for the compound C[C@@H](Cn1c(=O)[nH]/c(=N\c2ccc(Oc3ccccn3)cc2)n(Cc2ccc(Cl)cc2)c1=O)C(=O)O ?
[out] 0.0507

###

Assay details: clinical
Condition description: human, plasma, oral, 30 mg
Observable: concentration at 24 h

[in] Which concentration at 24 h reading was recorded for the compound C[C@@H](Cn1c(=O)[nH]/c(=N\c2ccc(Oc3ccccn3)cc2)n(Cc2ccc(Cl)cc2)c1=O)C(=O)O [compound represented by Formula (I)] ?
[out] 0.134 µg/mL
